Test: Sodium salt excretion in conscious rat at the dose of 1.0 mg/kg expressed as urinary excretion in treated rats/urinary excretion in control rats
Type: ADME, organism-based, Urine
Set-up: dose 1 mg/kg
Conditions: in vivo
Assay Metric: Na+ excretion

Nc1nc(=O)c(Br)c(-c2ccccc2)[nH]1    1.3

A. NS(=O)(=O)c1cc(C(=O)O)c(NCc2ccco2)cc1Cl [FUROSEMIDE]
B. NS(=O)(=O)c1cc2c(cc1Cl)NCNS2(=O)=O [HYDROCHLOROTHIAZIDE]
Param metric = Na+ excretion; output whichever of A , B has the minimum value. Record your answer as the label of the chosen record.
A
(A: 1.1, B: 2)

Taken from ChEMBL document CHEMBL1123346.
